- target-under-test: AnGBase (A. niger GBase) (Aspergillus niger, UniProt W8R465)
- Sequence (W8R465 21-422 limits assumed): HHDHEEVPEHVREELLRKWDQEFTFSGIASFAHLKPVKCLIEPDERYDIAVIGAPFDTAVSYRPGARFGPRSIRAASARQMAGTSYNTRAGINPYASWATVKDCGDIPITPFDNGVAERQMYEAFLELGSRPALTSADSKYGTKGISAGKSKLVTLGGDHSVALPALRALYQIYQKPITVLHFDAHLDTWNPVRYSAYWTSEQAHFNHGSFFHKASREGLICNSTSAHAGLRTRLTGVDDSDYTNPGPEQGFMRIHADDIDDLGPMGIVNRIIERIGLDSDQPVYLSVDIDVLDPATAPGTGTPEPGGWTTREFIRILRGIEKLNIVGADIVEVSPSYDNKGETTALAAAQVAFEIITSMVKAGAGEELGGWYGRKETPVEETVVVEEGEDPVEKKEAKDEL
- measurement-description: product inhibition, Cheng-Prusoff
- Assay type: biochemical
- measurement-context: read-out: KI / β-alanine
- From the text: product inhibition, Cheng-Prusoff on AnGBase (A. niger GBase)
endpoint: Ki (mM)
Note: unit mM is implicit; provide only the numeric part.

Request the reported Ki associated with "NCCC(=O)O"
48.7

---

- target-under-test: CpGBase (C. parapsilosis 4-guanidinobutyrase; CparGBase) (Lodderomyces parapsilosis, UniProt G8B5B7)
- Construct: gene CPAR2_602270
- Sequence (G8B5B7 16-367 limits assumed): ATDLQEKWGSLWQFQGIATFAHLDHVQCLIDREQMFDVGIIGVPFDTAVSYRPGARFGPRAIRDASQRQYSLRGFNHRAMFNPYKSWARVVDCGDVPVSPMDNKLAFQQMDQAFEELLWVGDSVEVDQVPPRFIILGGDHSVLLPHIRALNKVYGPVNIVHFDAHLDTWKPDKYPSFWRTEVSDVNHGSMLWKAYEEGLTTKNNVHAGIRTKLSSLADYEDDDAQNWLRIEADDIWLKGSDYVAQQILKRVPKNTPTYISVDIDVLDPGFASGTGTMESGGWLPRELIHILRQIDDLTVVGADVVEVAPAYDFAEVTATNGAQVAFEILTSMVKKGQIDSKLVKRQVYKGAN
- measurement-description: modified Archibald urea assay, product inhibition, Cheng-Prusoff
- Type: biochemical
- measurement-context: read-out: KI / GABA
endpoint: Ki (mM)
Note: unit mM is implicit; provide only the numeric part.

Request the reported Ki associated with "NCCCC(=O)O"
3.1
